Experiment summary: chemical genetic growth profiling, strain panel (AID 1159580);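 further: tested at 20 µM; growth read once vehicle control cultures reached saturation at 30 °C; 1 = growth at the plate median or of vehicle wells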
Study conditions: S. cerevisiae deletion strains, growth OD, locus YNR030W, strain Alg12
Screen size: about 5,500 compounds; about 2,000 (36%) were called active. Not shown: some 18% with an inconclusive outcome. No stated cut-off is given here; in the data, active means normalized growth mostly below about 0.91 (no sharp cut-off); inconclusive means no clear call, values can overlap the other calls; inactive means mostly above about 0.92. The list shows a part of the results.
Just give me one of these, please: active, inactive

Recorded call for "O/N=C\c1sccc1Oc1ccccc1" ?
inactive

Please share the test call associated with "N#Cc1sccc1Br" .
inactive

What did the test return for "CSc1nc(N)nc(N2CCCCC2)n1" ?
inactive

Please share the test call associated with "COc1cccc(C(=O)N/N=C(/C)c2ccccc2O)c1" .
active

Identify the outcome logged in this assay for the compound shown: CC(=O)C1C(=O)CC(c2ccc(Cl)cc2)CC1=O (stereo unspecified)
active

Could you check what this test reported for "O=C(COC(=O)c1ccccc1C(=O)c1ccccc1)c1ccccc1" ?
inactive

====

Please provide measured normalized growth for the entries that follow.
Experiment summary: chemical genetic growth profiling, strain panel (AID 1159580)
Study conditions: S. cerevisiae deletion strains, growth OD, locus YLR384C, strain iki3, stronger effect = lower value
Among all 5,500 compounds or so, about 2,000 (36%) were called active. About 18% were inconclusive and are not listed. Some of the results follow. *1 amine or outer side, *2 acyl side, *3 side chain or, on linkers, in order; H or OH if unused. Where a SMILES comes first, the peptide text is derived from it. Bridges are numbered along the chain shown (N, C = ends). [ ]: non-standard residue; d: D form. The star is where a group is joined. ξ: configuration not given here. ΔAla(E,3-NHCONH2) = NC(=O)N/C=C(/N)C(=O)O; X2 = NC1=NCCC(C(N[*:1])C(=O)[*:2])N1; ξβ3hOrn = NCCCC(N)CC(=O)*; Dap = NC[CH](N)C(=O)O
Number only, no unit.

Look up normalized growth: "CCC1(CC)C(=O)C=CNC1=O"
0.995

Fill in the blank: the reported normalized growth of "COc1ccc(C2C(=O)c3ccccc3C2=O)cc1" is ____.
0.992

For the compound "COc1cc(O)cc(OC)c1OC" , what normalized growth is on record?
0.937

Recorded normalized growth for "CC[C@H]1OC(=O)[C@H](C)[C@@H](O[C@H]2C[C@@](C)(OC)[C@@H](O)[C@H](C)O2)[C@H](C)[C@@H](O[C@@H]2O[C@H](C)C[C@H](N(C)C)[C@H]2O)[C@](C)(O)C[C@@H](C)[C@@H]2N[C@@H](COCCOC)O[C@H]([C@H]2C)[C@]1(C)O" , please?
0.993

So what does the record say about normalized growth for CC(=O)[C@@]1(O)CCC2C3CCC4=CC(=O)CC[C@]4(C)C3CC[C@@]21C (some centres undefined) ?
1.01

Name the reported normalized growth value associated with the compound "CCOc1ccc(NC(C)=O)cc1"
1.02

Dear colleague, I am looking for the recorded normalized growth of the following compound: NCCCC(N)CC(=O)NCC1NC(=O)C(CO)NC(=O)C(N)CNC(=O)C(C2CCN=C(N)N2)NC(=O)/C(=C\NC(N)=O)NC1=O (stereo not drawn) (H-[Dap]S[Dap](ξβ3hOrn)[ΔAla(E,3-NHCONH2)][X2]; lactam 1-C; configuration not given here)
1.02

What value of normalized growth has been recorded for this entry: "COc1ccc(C(=O)c2ccccc2)c(O)c1O"
0.968

Value lookup for normalized growth; key = "COc1ccc(C(=O)c2ccc(O)cc2)c(O)c1O"
0.984

====

Experiment summary: chemical genetic growth profiling, strain panel (AID 1159580);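 further: tested at 20 µM; growth read once vehicle control cultures reached saturation at 30 °C; 1 = growth at the plate median or of vehicle wells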
Study conditions: S. cerevisiae deletion strains, growth OD, locus YHR129C, strain ARP1, stronger effect = lower value
About 2,000 (36%) of roughly 5,500 compounds were called active. Another 18% or so got no clear call; they are omitted. The list shows a part of the results.
I'd appreciate it if you could supply normalized growth values for the items below.
Please respond with just the number, no unit label.

Value lookup for normalized growth; key = "O=c1c(O)c(-c2ccc(O)c(O)c2)oc2cc(O)ccc12"
0.861

Any idea what its normalized growth is? The compound is "COc1cc(/C=C/C=O)cc(OC)c1OC"
1.02

# lookup: normalized growth of CC1(C)C(=O)[C@@H]2C[C@@]3(O)C4=CC(=O)O[C@@H](c5ccoc5)[C@]4(C)CCC3[C@@](C)(C2=O)[C@H]1CC(=O)O (some centres undefined)
1

Sample "CC(=O)N[C@@H](Cc1c[nH]c2ccccc12)C(=O)O" — what was its normalized growth?
1

Fill in: normalized growth of "COc1ccc2c(c1OC)OC[C@@H](c1ccc(OC)c(OC)c1OC)C2" is ___
1.02

What value of normalized growth has been reported for the following compound? "CC1(C)C=Cc2cc3ccc(=O)oc3cc2O1"
0.978

Reported normalized growth, compound "COc1cccc(O)c1O" : ____
1.02

For "COc1ccc([C@H]2COc3c(ccc(O)c3OC)C2)c(OC)c1O" , what is its reported normalized growth?
1.01

Query: normalized growth; subject: "CC[C@H]1OC(=O)[C@H](C)[C@@H](O[C@H]2C[C@@](C)(OC)[C@@H](O)[C@H](C)O2)[C@H](C)[C@@H](O[C@@H]2O[C@H](C)C[C@H](N(C)C)[C@H]2O)[C@](C)(O)C[C@@H](C)[C@@H]2N[C@@H](COCCOC)O[C@H]([C@H]2C)[C@]1(C)O"
1.01

====

Experiment summary: chemical genetic growth profiling, strain panel (AID 1159580);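 further: tested at 20 µM; growth read once vehicle control cultures reached saturation at 30 °C; 1 = growth at the plate median or of vehicle wells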
Study conditions: S. cerevisiae deletion strains, growth OD, locus YKR091W, strain srl3, stronger effect = lower value
The campaign covered roughly 5,500 compounds. About 2,000 (36%) were called active. Not shown: some 18% with an inconclusive outcome. This is one part of the list.
Answer each item with its documented normalized growth.
Output: the number by itself.

Look up normalized growth for this molecule: "Cc1cc(C(C)(C)C)c(O)c(C)c1CC1=NCCN1"
0.996

Requested field: normalized growth. Item: "CC1(C)S[C@@H]2[C@H](NC(=O)Cc3ccccc3)C(=O)N2[C@H]1C(=O)O"
1.01

Endpoint output: normalized growth of "Cc1onc(-c2ccccc2Cl)c1C(=O)N[C@@H]1C(=O)N2[C@@H]1SC(C)(C)[C@@H]2C(=O)O" . Value?
1.02

Quick check: normalized growth of "CN(C)C(=N)N=C(N)N" ?
0.998

If you can, please state the reported normalized growth value of "Cc1cc(C(C)(C)C)cc(C)c1CC1=NCCN1" .
0.996

I am curious: what normalized growth value has been reported for "Cc1ccc(N(CC2=NCCN2)c2cccc(O)c2)cc1" ?
1

Which measured normalized growth value corresponds to "Cc1onc(-c2c(Cl)cccc2Cl)c1C(=O)N[C@@H]1C(=O)N2[C@@H]1SC(C)(C)[C@@H]2C(=O)O" ?
1

Quick one: normalized growth of "C=C(C)[C@H]1Cc2c(ccc3c2O[C@@H]2COc4cc(OC)c(OC)cc4[C@@H]2C3=O)O1" ?
0.991

Fill in: normalized growth of "COc1cccc(OC)c1C(=O)N[C@@H]1C(=O)N2[C@@H]1SC(C)(C)[C@@H]2C(=O)O" is ___
1

Which measured normalized growth value corresponds to "CC1(C)C=Cc2cc3ccc(=O)oc3cc2O1" ?
0.924

====

Experiment summary: chemical genetic growth profiling, strain panel (AID 1159580);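 further: tested at 20 µM; growth read once vehicle control cultures reached saturation at 30 °C; 1 = growth at the plate median or of vehicle wells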
Study conditions: S. cerevisiae deletion strains, growth OD, locus YLR102C, strain apc9, stronger effect = lower value
Hit rate of the full screen: of about 5,500 compounds, about 2,000 (36%) were called active. Inconclusive results (about 18%) are left out. Some of the results follow. *1 amine or outer side, *2 acyl side, *3 side chain or, on linkers, in order; H or OH if unused. Where a SMILES comes first, the peptide text is derived from it. Bridges are numbered along the chain shown (N, C = ends). [ ]: non-standard residue; d: D form. The star is where a group is joined. ξ: configuration not given here. ΔAla(E,3-NHCONH2) = NC(=O)N/C=C(/N)C(=O)O; X2 = NC1=NCCC(C(N[*:1])C(=O)[*:2])N1; ξβ3hOrn = NCCCC(N)CC(=O)*; Dap = NC[CH](N)C(=O)O
Recorded endpoint: normalized growth
# print the numeric value only

Query (molecule): "COc1ccc2c(c1)[C@]13CCCC[C@H]1[C@H](C2)N(C)CC3" ; field requested: normalized growth
0.976

What value of measured normalized growth is listed for "CCCCc1nc(Cl)c(CO)n1Cc1ccc(-c2ccccc2-c2nn[nH]n2)cc1" ?
0.994

Endpoint output: normalized growth of "CCCc1nc2c(C)cc(-c3nc4ccccc4n3C)cc2n1Cc1ccc(-c2ccccc2C(=O)O)cc1" . Value?
1

Fill blank: measured normalized growth of the molecule NCCCC(N)CC(=O)NCC1NC(=O)C(CO)NC(=O)C(N)CNC(=O)C(C2CCN=C(N)N2)NC(=O)/C(=C\NC(N)=O)NC1=O (stereo not drawn) (H-[Dap]S[Dap](ξβ3hOrn)[ΔAla(E,3-NHCONH2)][X2]; lactam 1-C; configuration not given here) is ____.
1.02

// returns reported normalized growth for input "CC1=NN(c2ccccc2)C(=O)C1"
1

Would you mind telling me what normalized growth value was observed for CC(=O)[C@@]1(O)CCC2C3CCC4=CC(=O)CC[C@]4(C)C3CC[C@@]21C (stereo partly drawn) ?
1.01

Report normalized growth for "COc1cnc(NS(=O)(=O)c2ccc(N)cc2)nc1" please.
0.973

Could you tell me which normalized growth is on file for COC(=O)C[C@H]1C(C)(C)[C@@H](O)[C@@H]2CC3=C4C=C(OC)O[C@@H](c5ccoc5)[C@]4(C)CCC3[C@@]1(C)C2=O (stereo partly drawn) ?
0.987
